All values here come from patent US5081264A.

Target: N-methyl-D-aspartic acid receptor
Assay: Binding activity to N-methyl-D-aspartic acid receptor ([3H]TCP binding in rat brain membranes)
Conditions: rat brain membranes (crushed cerebrum)
parameter: IC50 (50% inhibition of [3H]TCP binding) (µg/mL)

>>> valuemeasured("COc1cc(OC)c2c(O)c3c(c(-c4c5c(c(O)c6c(OC)cc(OC)cc46)COC(C)C5OC(C)=O)c2c1)C(OC(C)=O)C(C)OC3 (centres unmarked) [ES-242-2]")
1.9

[P] COc1cc(OC)c2c(O)c3c(c(-c4c5c(c(O)c6c(OC)cc(OC)cc46)COC(C)C5O)c2c1)C(O)C(C)OC3 (centres unmarked) [ES-242-4]
[Q] COc1cc(OC)c2c(O)c3c(c(-c4c5c(c(O)c6c(OC)cc(OC)cc46)COC(C)C5OC(C)=O)c2c1)C(O)C(C)OC3 (centres unmarked) [ES-242-3]
[R] COc1cc(OC)c2c(O)c3c(c(-c4c5c(c(O)c6c(OC)cc(OC)cc46)COC(C)C5O)c2c1)CC(C)OC3 (centres unmarked) [ES-242-5]
[S] COc1cc(OC)c2c(O)c3c(c(-c4c5c(c(O)c6c(OC)cc(OC)cc46)COC(C)C5OC(C)=O)c2c1)CC(C)OC3 (centres unmarked) [ES-242-1]
IN: // ascending sort on recorded IC50 (50% inhibition of [3H]TCP binding) I would appreciate it if you listed the labels in the requested order.
OUT: S, R, Q, P
